- Tested on: hiPSC-CM (iCell Cardiomyocytes^2)
- assay-summary: Intracellular miRNA expression by RT-qPCR in hiPSC-CM pellets after 72-hour treatment
- experimental-conditions: Homo sapiens, 72 h, read-out: hsa-miR-187-3p fold change
- Description: Culture media change was performed every 2 days. Total RNA was extracted from hiPSC-CM using the miRNeasy 96 Kit (Qiagen, Hilden, Germany) following the manufacturer’s recommendations. After the extraction, RNA purity was assessed by NanoDrop™ 8000 Spectrophotometer (Thermo Fisher Scientific Inc.). 5–10 ng/μL of RNA per sample were reverse transcribed and pre-amplified by using the TaqMan™ Advanced miRNA cDNA Synthesis Kit (Thermo Fisher Scientific Inc.). […]
Kindly apply the following: 1 (yes) if fold induction at 3 µM is less than 1, 0 (no) in every other case.

[[record]]
molecule = "CC(=O)[C@]1(O)Cc2c(O)c3c(c(O)c2[C@@H](O[C@H]2C[C@H](N)[C@H](O)[C@H](C)O2)C1)C(=O)c1ccccc1C3=O [Idarubicin]"
class_name = "0 (no)"

[[record]]
molecule = "CCCN1C[C@H](CSC)C[C@@H]2c3cccc4[nH]cc(c34)C[C@H]21 [Pergolide]"
class_name = "0 (no)"

[[record]]
molecule = "CCC1=C[C@@H]2CN(C1)Cc1c([nH]c3ccccc13)[C@@](C(=O)OC)(c1cc3c(cc1OC)N(C)[C@H]1[C@@](O)(C(=O)OC)[C@H](OC(C)=O)[C@]4(CC)C=CCN5CC[C@]31[C@@H]54)C2 [Vinorelbine]"
class_name = "1 (yes)"

[[record]]
molecule = "O=c1[nH]cc(F)c(=O)[nH]1 [5-FluoroUracil]"
class_name = "0 (no)"


fold induction at 3 µM under 1? Item: Cc1[nH]c(=O)c(C#N)cc1-c1ccncc1 [Milrinone]
0 (no)

* * *

- Test system: hiPSC-CM (iCell Cardiomyocytes^2)
- assay-summary: Intracellular miRNA expression by RT-qPCR in hiPSC-CM pellets after 72-hour treatment
- experimental-conditions: 1 µM, 72 h
Structures can show the parent of a compound that is named as a salt.
endpoint-label: hsa-miR-208b-3p fold change, intracellular
Please state the value as a number alone, without comment.

Sample answers from the record:
[[record]]
compound = "CC(C)C[C@H](NC(=O)CNC(=O)c1cc(Cl)ccc1Cl)B1OC(=O)C(CC(=O)O)(CC(=O)O)O1 [Ixazomib Citrate]"
observed = 0.9

[[record]]
compound = "Cc1nc(Nc2ncc(C(=O)Nc3c(C)cccc3Cl)s2)cc(N2CCN(CCO)CC2)n1 [Dasatinib]"
observed = 1.2

[[record]]
compound = "Cc1cn(-c2cc(NC(=O)c3ccc(C)c(Nc4nccc(-c5cccnc5)n4)c3)cc(C(F)(F)F)c2)cn1 [Nilotinib]"
observed = 1.2


Please turn your attention to the following entry.
Need hsa-miR-208b-3p fold change, intracellular of CC(C)C[C@H](NC(=O)[C@H](CCc1ccccc1)NC(=O)CN1CCOCC1)C(=O)N[C@@H](Cc1ccccc1)C(=O)N[C@@H](CC(C)C)C(=O)[C@@]1(C)CO1 [Carfilzomib] , thanks.
1.0

* * *

- Test system: hiPSC-CM (iCell Cardiomyocytes^2)
- assay-summary: Intracellular miRNA expression by RT-qPCR in hiPSC-CM pellets after 72-hour treatment
- experimental-conditions: Homo sapiens, 72 h, read-out: hsa-miR-126-3p fold change
endpoint-label: fold induction at 0.3 µM
Please state the value as a number alone, without comment.

Sample answers from the record:
[[record]]
compound = "CC(=O)[C@]1(O)Cc2c(O)c3c(c(O)c2[C@@H](O[C@H]2C[C@H](N)[C@H](O)[C@H](C)O2)C1)C(=O)c1ccccc1C3=O"
observed = 1.3

[[record]]
compound = "CC[C@]1(O)C[C@H]2CN(CCc3c([nH]c4ccccc34)[C@@](C(=O)OC)(c3cc4c(cc3OC)N(C=O)[C@H]3[C@@](O)(C(=O)OC)[C@H](OC(C)=O)[C@]5(CC)C=CCN6CC[C@]43[C@@H]65)C2)C1"
observed = 1.4

[[record]]
compound = "Cc1[nH]c(=O)c(C#N)cc1-c1ccncc1"
observed = 5.9

[[record]]
compound = "CCCN1C[C@H](CSC)C[C@@H]2c3cccc4[nH]cc(c34)C[C@H]21 [Pergolide]"
observed = 1.2

[[record]]
compound = "COc1nc(N)nc2c1ncn2[C@@H]1O[C@H](COP(=O)(N[C@@H](C)C(=O)OCC(C)(C)C)Oc2cccc3ccccc23)[C@@H](O)[C@@]1(C)O (some centres unmarked)"
observed = 2.9


Need fold induction at 0.3 µM of CCN[C@@H](C)Cc1cccc(C(F)(F)F)c1 , thanks.
0.5

Please do the same for CCCCCNC(=N)N/N=C/c1c[nH]c2ccc(OC)cc12 as well.
3.2

Please do the same for CCC1=C[C@@H]2CN(C1)Cc1c([nH]c3ccccc13)[C@@](C(=O)OC)(c1cc3c(cc1OC)N(C)[C@H]1[C@@](O)(C(=O)OC)[C@H](OC(C)=O)[C@]4(CC)C=CCN5CC[C@]31[C@@H]54)C2 as well.
2

* * *

// values below are reported Beating Rate MEC
- Test system: hiPSC-CM (iCell Cardiomyocytes^2)
- assay-summary: RTCA CardioECR assessment (impedance and electrophysiology parameters)
- experimental-conditions: human, 72 h

[[record]]
compound = "COc1nc(N)nc2c1ncn2[C@@H]1O[C@H](COP(=O)(N[C@@H](C)C(=O)OCC(C)(C)C)Oc2cccc3ccccc23)[C@@H](O)[C@@]1(C)O (stereo partly drawn) [BMS-986094]"
observed = "0.048 µM"

[[record]]
compound = "CCC1=C[C@@H]2CN(C1)Cc1c([nH]c3ccccc13)[C@@](C(=O)OC)(c1cc3c(cc1OC)N(C)[C@H]1[C@@](O)(C(=O)OC)[C@H](OC(C)=O)[C@]4(CC)C=CCN5CC[C@]31[C@@H]54)C2 [Vinorelbine]"
observed = "1 µM"


Need Beating Rate MEC of Cc1nc(Nc2ncc(C(=O)Nc3c(C)cccc3Cl)s2)cc(N2CCN(CCO)CC2)n1 [Dasatinib] , thanks.
0.3 µM

* * *

- System: hiPSC-CM (iCell Cardiomyocytes^2)
- assay-summary: Intracellular miRNA expression by RT-qPCR in hiPSC-CM pellets after 72-hour treatment
- experimental-conditions: 1 µM, 72 h
- Procedure: Culture media change was performed every 2 days. Total RNA was extracted from hiPSC-CM using the miRNeasy 96 Kit (Qiagen, Hilden, Germany) following the manufacturer’s recommendations. After the extraction, RNA purity was assessed by NanoDrop™ 8000 Spectrophotometer (Thermo Fisher Scientific Inc.). 5–10 ng/μL of RNA per sample were reverse transcribed and pre-amplified by using the TaqMan™ Advanced miRNA cDNA Synthesis Kit (Thermo Fisher Scientific Inc.). […]
Counter-ions that a name gives are not always drawn.
// values below are reported hsa-miR-7-5p fold change, intracellular
Please state the value as a number alone, without comment.

Need hsa-miR-7-5p fold change, intracellular of Cc1cn(-c2cc(NC(=O)c3ccc(C)c(Nc4nccc(-c5cccnc5)n4)c3)cc(C(F)(F)F)c2)cn1 , thanks.
0.9

Please do the same for CC(C)C[C@H](NC(=O)CNC(=O)c1cc(Cl)ccc1Cl)B1OC(=O)C(CC(=O)O)(CC(=O)O)O1 [Ixazomib Citrate] as well.
12.6

Please do the same for Cc1nc(Nc2ncc(C(=O)Nc3c(C)cccc3Cl)s2)cc(N2CCN(CCO)CC2)n1 as well.
0.8

Please do the same for CC(C)C[C@H](NC(=O)[C@H](CCc1ccccc1)NC(=O)CN1CCOCC1)C(=O)N[C@@H](Cc1ccccc1)C(=O)N[C@@H](CC(C)C)C(=O)[C@@]1(C)CO1 as well.
1.3

* * *

- Tested on: hiPSC-CM (iCell Cardiomyocytes^2)
- assay-summary: Intracellular miRNA expression by RT-qPCR in hiPSC-CM pellets after 72-hour treatment
- experimental-conditions: Homo sapiens, 72 h, read-out: hsa-miR-208b-3p fold change
- Description: Culture media change was performed every 2 days. Total RNA was extracted from hiPSC-CM using the miRNeasy 96 Kit (Qiagen, Hilden, Germany) following the manufacturer’s recommendations. After the extraction, RNA purity was assessed by NanoDrop™ 8000 Spectrophotometer (Thermo Fisher Scientific Inc.). 5–10 ng/μL of RNA per sample were reverse transcribed and pre-amplified by using the TaqMan™ Advanced miRNA cDNA Synthesis Kit (Thermo Fisher Scientific Inc.). […]
endpoint-label: fold induction at 0.1 µM
Please state the value as a number alone, without comment.

Sample answers from the record:
[[record]]
molecule = "CCC1=C[C@@H]2CN(C1)Cc1c([nH]c3ccccc13)[C@@](C(=O)OC)(c1cc3c(cc1OC)N(C)[C@H]1[C@@](O)(C(=O)OC)[C@H](OC(C)=O)[C@]4(CC)C=CCN5CC[C@]31[C@@H]54)C2"
observed = 0.8

[[record]]
molecule = "Cc1[nH]c(=O)c(C#N)cc1-c1ccncc1"
observed = 1.3

[[record]]
molecule = "CCN[C@@H](C)Cc1cccc(C(F)(F)F)c1"
observed = 0.8

[[record]]
molecule = "CC(=O)[C@]1(O)Cc2c(O)c3c(c(O)c2[C@@H](O[C@H]2C[C@H](N)[C@H](O)[C@H](C)O2)C1)C(=O)c1ccccc1C3=O"
observed = 0.5

[[record]]
molecule = "COc1nc(N)nc2c1ncn2[C@@H]1O[C@H](COP(=O)(N[C@@H](C)C(=O)OCC(C)(C)C)Oc2cccc3ccccc23)[C@@H](O)[C@@]1(C)O (stereo partly drawn)"
observed = 1.7


Please turn your attention to the following entry.
Need fold induction at 0.1 µM of CCCCCNC(=N)N/N=C/c1c[nH]c2ccc(OC)cc12 , thanks.
1.7
